Test: Plasma kinetic study of colchicine with and without Schisandrin A
Assay type: in vivo
Conditions: male, Sprague Dawley, rat, po, 3 mg/kg, Group4, rats, Schisandrin A 12.6 mg/kg oral 5 min before colchicine 3.0 mg/kg oral, read-out: MRT0→∞ of colchicine
readout_label: MRT inf (h)
Give a bare numeral; the unit h is implied.

Ask | Bench note: what MRT inf did COc1cc2c(c(OC)c1OC)-c1ccc(OC)c(=O)cc1[C@@H](NC(C)=O)CC2 [colchicine] show?
Reply | 6.54

----------
Assay: Plasma kinetic study of colchicine with and without Schisandrin A
Format: in vivo
Settings: male, Sprague Dawley, rat, po, 3 mg/kg, Group5, rats, Schisandrin A 25.2 mg/kg oral 5 min before colchicine 3.0 mg/kg oral, read-out: AUC0→∞ of colchicine
readout_label: AUC(0-inf) (ng·h/mL)
All answers are understood in ng·h/mL, so give the number only.

Ask | What value of AUC(0-inf) has been recorded for this entry: COc1cc2c(c(OC)c1OC)-c1ccc(OC)c(=O)cc1[C@@H](NC(C)=O)CC2
Reply | 86.8

----------
Experiment: Plasma kinetic study of celastrol with and without Schisandrin A
Format: in vivo, Sprague Dawley rats
Settings: male, Sprague Dawley, rat, plasma, po, 1.8 mg/kg, Group6; rats, Schisandrin A 44.0 mg/kg oral 5 min before celastrol 1.8 mg/kg oral; read-out: AUC0→t of celastrol
Method: 42 Male Sprague Dawley rats (weight, 210-250 g) were maintained on a 12-hour light/dark cycle with free access to water and lab chow for 10-14 h prior to the experiment. Rats were randomly divided into 7 groups (n=6 each) and groups 2-7 received 0 mg/kg, 5.5 mg/kg, and 11.0 mg/kg, 22.0 mg/kg, 44.0 mg/kg and 88.0 mg/kg of Schisandrin A in 1% CMC-Na (300-800 cps) via oral administration, respectively. […]
readout_label: AUC(0-t) (ng·h/mL)
# unit: ng·h/mL | format: bare number

Ask | // returns reported AUC(0-t) for input CC1=C(O)C(=O)C=C2C1=CC=C1[C@@]2(C)CC[C@@]2(C)[C@@H]3C[C@](C)(C(=O)O)CC[C@]3(C)CC[C@]12C
Reply | 156

----------
Assay: Plasma kinetic study of celastrol with and without Schisandrin A
Assay type: in vivo, Sprague Dawley rats
Conditions: male, Sprague Dawley, rat, plasma, po, 1.8 mg/kg, Group3; rats, Schisandrin A 5.5 mg/kg oral 5 min before celastrol 1.8 mg/kg oral; read-out: T1/2 of celastrol (converted)
readout_label: half-life (min)
Report only the number, with the unit min understood.

Ask | Query (molecule): CC1=C(O)C(=O)C=C2C1=CC=C1[C@@]2(C)CC[C@@]2(C)[C@@H]3C[C@](C)(C(=O)O)CC[C@]3(C)CC[C@]12C ; field requested: half-life
Reply | 688

----------
Assay: Plasma kinetic study of colchicine with and without Schisandrin A
Format: in vivo
Conditions: male, Sprague Dawley, rat, po, 3 mg/kg, Group6, rats, Schisandrin A 50.4 mg/kg oral 5 min before colchicine 3.0 mg/kg oral, read-out: MRT0→t of colchicine
readout_label: MRT last (h)
Field format: number, assumed h, no unit text.

Ask | I am curious: what MRT last value has been reported for COc1cc2c(c(OC)c1OC)-c1ccc(OC)c(=O)cc1[C@@H](NC(C)=O)CC2 ?
Reply | 5.1

----------
Experiment: Plasma kinetic study of colchicine with and without Schisandrin A
Assay type: in vivo
Details: male, Sprague Dawley, rat, po, 3 mg/kg, Group4, rats, Schisandrin A 12.6 mg/kg oral 5 min before colchicine 3.0 mg/kg oral, read-out: AUC0→∞ of colchicine
readout_label: AUC(0-inf) (ng·h/mL)
Field format: number, assumed ng·h/mL, no unit text.

Ask | Give its AUC(0-inf) value. Item: COc1cc2c(c(OC)c1OC)-c1ccc(OC)c(=O)cc1[C@@H](NC(C)=O)CC2
Reply | 79.7
